- assay_comment: logP determination by HPLC on a reversed-phase column (C18), EEC Directive 79/831 Annex V.A8
- Format: physicochemical
- details: HPLC-MS method a), Table I-T3
In this section we review reported logP^a) values for a set of compounds.

compound_smiles	logP^a)
CCc1cc(C(F)(C(F)(F)F)C(F)(F)F)ccc1-n1cc(-c2cncc(C(=O)NC3(C#N)CC3)c2)cn1	3.8
Cc1cc(C(F)(C(F)(F)F)C(F)(F)F)cc(C(F)(F)F)c1-n1cc(-c2ccc(Cl)c(C(=O)NC3CSC3)c2)cn1	4.7
Cc1cc(C(F)(C(F)(F)F)C(F)(F)F)cc(Br)c1-n1cc(-c2ccc(Cl)c(C(=O)NC3CC3)c2)cn1	4.5
O=C(NC1CSC1)c1cc(-c2cnn(-c3ccc(C(F)(C(F)(F)F)C(F)(F)F)cc3OC(F)(F)F)c2)ccc1Cl	4.9
Cc1cc(C(F)(C(F)(F)F)C(F)(F)F)cc(C)c1-n1cc(-c2cncc(C(=O)NC3CC3)c2)cn1	3.4
CCc1cc(C(F)(F)C(F)(F)F)cc(C)c1-n1cc(-c2ccc(Cl)c(C(=O)NC3(C#N)CC3)c2)cn1	4.2
Cc1cc(C(F)(C(F)(F)F)C(F)(F)F)cc(C)c1-n1cc(-c2cc(C(=O)NC3(C#N)CC3)ccc2F)cn1	4.3
CCc1cc(C(F)(C(F)(F)F)C(F)(F)F)ccc1-n1cc(-c2ccc(Cl)c(C(=O)NC3CSC3)c2)cn1	4.9
O=C(NC1CC1)c1c(Cl)ccc(-c2cnn(-c3c(Cl)cc(C(F)(C(F)(F)F)C(F)(F)F)cc3Cl)c2)c1F	4.5
N#CC1(NC(=O)c2cc(-c3cnn(-c4ccc(C(F)(C(F)(F)F)C(F)(F)F)cc4OC(F)(F)F)c3)ccc2Cl)CC1	4.6
O=C(NC1CC1)c1cc(-c2cnn(-c3c(F)cc(C(F)(C(F)(F)F)C(F)(F)F)cc3F)c2)ccc1Cl	4.0
CCc1cc(C(F)(C(F)(F)F)C(F)(F)F)cc(C)c1-n1cc(-c2cccc(C(=O)NC3(C#N)CC3)c2F)cn1	4.5
Cc1cc(C(F)(C(F)(F)F)C(F)(F)F)cc(C)c1-n1cc(-c2ccc(Cl)c(C(=O)NCC(=O)NCC(F)(F)F)c2)cn1	4.1
Cc1cc(C(F)(C(F)(F)F)C(F)(F)F)cc(C)c1-n1cc(-c2cc(C(=O)NC3CC3)c(F)cc2Cl)cn1	4.9
